Test: Rat PK study of the compound of Example 1
Type: in vivo
Conditions: plasma, PO 1 mg/kg
Method: Surgically modified rats are housed one per cage, and supplied with water and a commercial rodent diet ad libitum prior to study initiation. […] Drug levels in the plasma samples are quantified via HPLC with MS/MS detection. Pharmacokinetic parameters based on the group geomean concentration versus time data, are calculated using a noncompartmental pharmaceutical data analysis software PK Solutions 2.0 (Summit Research Services, Montrose, Colo.).
assay metric: bioavailability (%)
Give the value, in units of %, as a plain number.

QUERY: Quick one: bioavailability of "CN1C(=O)CN2c3c(cccc31)[C@@H]1CN(CCCOc3ccc(F)cc3)CC[C@@H]12" ?
RESULT: 10

---

assay: Rat PK study of the compound of Example 2; format: in vivo; settings: plasma, SC 45 mg/kg
assay metric: concentration at 24 h

QUERY: Quick one: concentration at 24 h of "CN1CCN2c3c(cccc31)[C@@H]1CN(CCCC(=O)c3ccc(F)cc3)CC[C@@H]12" ?
RESULT: 12.3 ng/mL

---

Assay: Rat PK study of the compound of Example 1
Type: in vivo
Details: plasma, IV 1 mg/kg
Experimental: Surgically modified rats are housed one per cage, and supplied with water and a commercial rodent diet ad libitum prior to study initiation. […] Drug levels in the plasma samples are quantified via HPLC with MS/MS detection. Pharmacokinetic parameters based on the group geomean concentration versus time data, are calculated using a noncompartmental pharmaceutical data analysis software PK Solutions 2.0 (Summit Research Services, Montrose, Colo.).
assay metric: concentration at 30 min (ng/mL)
Give the value, in units of ng/mL, as a plain number.

QUERY: Quick one: concentration at 30 min of "CN1C(=O)CN2c3c(cccc31)[C@@H]1CN(CCCOc3ccc(F)cc3)CC[C@@H]12" ?
RESULT: 116

---

test: Rat PK study of the compound of Example 1; type: in vivo; details: plasma, PO 1 mg/kg
assay metric: concentration at 30 min

QUERY: Quick one: concentration at 30 min of CN1C(=O)CN2c3c(cccc31)[C@@H]1CN(CCCOc3ccc(F)cc3)CC[C@@H]12 [Compound 1] ?
RESULT: 4.2 ng/mL

---

experiment: Rat PK study of the compound of Example 2; type: in vivo; conditions: plasma, PO 10 mg/kg
assay metric: concentration at 12 h (ng/mL)
Give the value, in units of ng/mL, as a plain number.

QUERY: Quick one: concentration at 12 h of "CN1CCN2c3c(cccc31)[C@@H]1CN(CCCC(=O)c3ccc(F)cc3)CC[C@@H]12" ?
RESULT: 0.3

---

assay: Rat PK study of the compound of Example 1; type: in vivo; details: plasma, IV 1 mg/kg
assay metric: concentration at 1 h (ng/mL)
Give the value, in units of ng/mL, as a plain number.

QUERY: Quick one: concentration at 1 h of CN1C(=O)CN2c3c(cccc31)[C@@H]1CN(CCCOc3ccc(F)cc3)CC[C@@H]12 [Compound 1] ?
RESULT: 70

---

test: Rat PK study of the compound of Example 2; assay type: in vivo; conditions: plasma, IV 1 mg/kg
assay metric: bioavailability (%)
Give the value, in units of %, as a plain number.

QUERY: Quick one: bioavailability of CN1CCN2c3c(cccc31)[C@@H]1CN(CCCC(=O)c3ccc(F)cc3)CC[C@@H]12 [Formula B] ?
RESULT: 100
